Data origin, for the record: patent US20260041640A1

ASSAY REMARKS: First-in-human clinical study: plasma and whole blood PK of INX-315 (oral QD, ASD tablet)
Format: in vivo
CONDITION NOTES: human, plasma, oral, 100 mg, plasma, 100 mg QD, Day 15 (Example 10); read-out: AUC
MEASURED PROPERTY: AUC (ng·h/mL)

1) NS(=O)(=O)c1ccc(Nc2ncc3cc4n(c3n2)C2(CCCCC2)C(=O)NN4)cc1 [INX-315]: 3290

====

ASSAY REMARKS: First-in-human clinical study: plasma and whole blood PK of INX-315 (oral QD, ASD tablet)
Assay type: in vivo
CONDITION NOTES: human, plasma, oral, 200 mg, plasma, 200 mg QD, Day 15, Cohort 2; read-out: t1/2, geometric mean (converted)
MEASURED PROPERTY: half-life

1) NS(=O)(=O)c1ccc(Nc2ncc3cc4n(c3n2)C2(CCCCC2)C(=O)NN4)cc1: 10.8 h

====

ASSAY REMARKS: First-in-human clinical study: plasma and whole blood PK of INX-315 (oral QD, ASD tablet)
Type: in vivo
CONDITION NOTES: human, whole blood, oral, 100 mg, whole blood, 100 mg QD, Day 1, Cohort 1 (Table 28); read-out: AUClast, geometric mean
MEASURED PROPERTY: AUC(0-t) (ng·h/mL)

1) NS(=O)(=O)c1ccc(Nc2ncc3cc4n(c3n2)C2(CCCCC2)C(=O)NN4)cc1: 34700

====

ASSAY REMARKS: Aqueous solubility of INX-315
Format: physicochemical
CONDITION NOTES: 50 mM Na acetate, aqueous buffer, 50 mM Na Acetate; read-out: Total Drug Solubility
MEASURED PROPERTY: solubility

1. NS(=O)(=O)c1ccc(Nc2ncc3cc4n(c3n2)C2(CCCCC2)C(=O)NN4)cc1: 19 µg/mL

====

ASSAY REMARKS: First-in-human clinical study: plasma and whole blood PK of INX-315 (oral QD, ASD tablet)
Type: in vivo
CONDITION NOTES: human, plasma, oral, 200 mg, plasma, 200 mg QD, Day 15, Cohort 2; read-out: Cmax, median
Procedure: All INX-315 tablets were taken at approximately the same time(s) each day. Samples will also be collected pre-dose on Cycle 1 Days 2, 8, 16, and Day 22, and pre-dose on Day 1 of each subsequent cycle. Standard non-compartmental PK parameters were estimated. […] PK parameters will be summarized descriptively by dosing cohort. […] Dose proportionality will be assessed for AUC and Cmax using a power model. […] Patients were upgraded to the 200 mg QD dose level and PK/PD plasma parameters were measured (FIG. 18A). […]
MEASURED PROPERTY: Cmax (µg/mL)

1) NS(=O)(=O)c1ccc(Nc2ncc3cc4n(c3n2)C2(CCCCC2)C(=O)NN4)cc1: 0.888

====

ASSAY REMARKS: First-in-human clinical study: plasma and whole blood PK of INX-315 (oral QD, ASD tablet)
Format: in vivo
CONDITION NOTES: human, plasma, oral, 300 mg, plasma, 300 mg QD cohort, Day 1, median; read-out: AUClast, Median
MEASURED PROPERTY: AUC(0-t) (ng·h/mL)

1. NS(=O)(=O)c1ccc(Nc2ncc3cc4n(c3n2)C2(CCCCC2)C(=O)NN4)cc1 [INX-315]: 10200
